- system tested: ICE (Homo sapiens, UniProt P29466)
- Sequence (P29466 120-297 limits assumed): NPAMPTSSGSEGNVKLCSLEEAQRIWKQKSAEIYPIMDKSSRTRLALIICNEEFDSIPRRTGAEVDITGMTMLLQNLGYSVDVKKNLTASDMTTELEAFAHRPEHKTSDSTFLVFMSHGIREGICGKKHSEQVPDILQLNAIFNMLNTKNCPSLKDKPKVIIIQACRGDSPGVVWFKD
- Sequence (P29466 317-404 limits assumed): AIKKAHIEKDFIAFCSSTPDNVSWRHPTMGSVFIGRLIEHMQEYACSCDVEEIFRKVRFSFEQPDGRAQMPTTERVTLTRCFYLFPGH
- test details: Enzyme assay with UV-visible substrate (visible ICE assay, Succinyl-Tyr-Val-Ala-Asp-pNitroanilide)
- Assay type: biochemical
- details: Table 5
experimental readout: Ki (nM)

Some entries whose results are on file:
[
  {
    "structure smiles": "CC(=O)N1C[C@H](NC(=O)Cc2ccccc2)C(=O)N(CC(=O)N[C@H](C=O)CC(=O)O)c2ccccc21",
    "Ki, nM": 270
  },
  {
    "structure smiles": "COC(=O)Nc1ccc(C(=O)N[C@H]2CCC(=O)N3CCC[C@@H](C(=O)N[C@H](C=O)CC(=O)O)N3C2=O)cc1",
    "Ki, nM": 4.3
  }
]

I. Cn1c(C(=O)N[C@H]2CCC(=O)N3CCC[C@@H](C(=O)N[C@H](C=O)CC(=O)O)N3C2=O)cc2ccccc21
II. Cc1nc(C)c(C(=O)N[C@H]2CCC(=O)N3CCC[C@@H](C(=O)N[C@H](C=O)CC(=O)O)N3C2=O)s1
III. O=C[C@H](CC(=O)O)NC(=O)[C@@H]1CCCN2C(=O)CC[C@H](NC(=O)c3ccc(OC(=O)c4ccccc4)cc3)C(=O)N12
IV. CC(=O)N(C)c1ccc(C(=O)N[C@H]2CCC(=O)N3CCC[C@@H](C(=O)N[C@H](C=O)CC(=O)O)N3C2=O)cc1
// query Please produce an ascending ranking of these compounds based on Ki. Put the labels in the requested order and list them out.
// result I, III, II, IV

---

Listed compounds paired with reported melting point

[
  {
    "compound": "COC(=O)N[C@H]1CCC(=O)N2CCC[C@@H](C(=O)N[C@@H](CC(=O)O)C(=O)CSc3nnnn3-c3ccccc3)N2C1=O [Compound 280c]",
    "reported result": "105 to 130 °C"
  }
]

// field: melting point; key: O=C(O)C[C@H](NC(=O)[C@@H]1CCCN2C(=O)CC[C@H](NC(=O)c3ccccc3)C(=O)N12)C(=O)c1nc2cc(Cl)cc(Cl)c2o1 [Compound 223e] ; value = 167 to 180 °C

// melting point lookup, compound = O=C1C[C@H](NC(=O)[C@@H]2CCCN3C(=O)CC[C@H](NC(=O)c4cccc5ccccc45)C(=O)N23)C(OCc2ccccc2)O1 (stereo partly drawn) [Compound 213v] , result: 121 to 127 °C

---

- system tested: UniProt:P29466
- test details: Enzyme assay with UV-visible substrate (visible ICE assay, Succinyl-Tyr-Val-Ala-Asp-pNitroanilide)
- Assay type: biochemical
- details: Table 5
pKi: −log10 of the molar value.
experimental readout: pKi

[
  {
    "compound": "O=C[C@H](CC(=O)O)NC(=O)CN1C(=O)[C@@H](NC(=O)c2ccccc2)CN(C(=O)CCc2ccccc2)c2ccccc21 [Compound 605a]",
    "pKi": 7.05
  }
]

P. CNC(=O)N[C@H]1CCC(=O)N2CCC[C@@H](C(=O)N[C@H](C=O)CC(=O)O)N2C1=O
Q. O=C[C@@H](CCC(=O)O)NC(=O)[C@@H]1CCCN2C(=O)CC[C@H](NC(=O)c3ccccc3)C(=O)N12 [Compound 238e]
R. CCC(=O)Nc1ccc(C(=O)N[C@H]2CCC(=O)N3CCC[C@@H](C(=O)N[C@H](C=O)CC(=O)O)N3C2=O)cc1
S. Cc1nc(-c2ccc(C(F)(F)F)cc2)sc1C(=O)N[C@H]1CCC(=O)N2CCC[C@@H](C(=O)N[C@H](C=O)CC(=O)O)N2C1=O
// query Falling order of pKi, please. Please respond with the labels ordered as the question requires.
// result R, S, Q, P
(R: 8.70, S: 8.35, Q: 6.30, P: 5.92)

---

- Tested on: IL-1β, human whole blood
- test details: Whole blood assay for IL-1β production
- Type: cell-based
- details: Homo sapiens, * = values obtained upon reassay; read-out: Whole human blood IC50
pIC50: −log10 of the molar value.
experimental readout: pIC50

Use these answered entries as a reference point.
[
  {
    "compound": "CS(=O)(=O)c1ccc(C(=O)N[C@H]2CCC(=O)N3CCC[C@@H](C(=O)N[C@H](C=O)CC(=O)O)N3C2=O)cc1",
    "reported result": 5.62
  },
  {
    "compound": "O=C[C@H](CC(=O)O)NC(=O)[C@@H]1CCCN2C(=O)CC[C@H](NC(=O)c3ccc4nn[nH]c4c3)C(=O)N12",
    "reported result": 5.70
  },
  {
    "compound": "Cc1ccccc1C(=O)N[C@H]1CCC(=O)N2CCC[C@@H](C(=O)N[C@H](C=O)CC(=O)O)N2C1=O",
    "reported result": 5.96
  },
  {
    "compound": "O=C[C@H](CC(=O)O)NC(=O)[C@@H]1CCCN2C(=O)CC[C@H](NC(=O)c3ccc4ccccc4c3)C(=O)N12",
    "reported result": 5.77
  },
  {
    "compound": "O=C(O)C[C@H](NC(=O)[C@@H]1CCCN2C(=O)CC[C@H](NC(=O)CCc3ccccc3)C(=O)N12)C(=O)COC(=O)c1c(Cl)cccc1Cl",
    "reported result": 5.55
  }
]

P. CC(=O)N(C)c1ccc(C(=O)N[C@H]2CCC(=O)N3CCC[C@@H](C(=O)N[C@H](C=O)CC(=O)O)N3C2=O)cc1
Q. COc1ccc(C(=O)N[C@H]2CCC(=O)N3CCC[C@@H](C(=O)N[C@H](C=O)CC(=O)O)N3C2=O)cc1F
// query pIC50 comparison. Which is larger, P or Q ? When you have decided, please share the label of that item.
// result Q

---

- system tested: ICE (Homo sapiens, UniProt P29466)
- Sequence (P29466 120-297 limits assumed): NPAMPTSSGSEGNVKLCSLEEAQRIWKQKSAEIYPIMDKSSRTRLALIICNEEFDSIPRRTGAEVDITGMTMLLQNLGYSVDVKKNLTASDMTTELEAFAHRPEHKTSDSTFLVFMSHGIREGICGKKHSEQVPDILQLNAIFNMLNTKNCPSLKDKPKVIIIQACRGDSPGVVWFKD
- Sequence (P29466 317-404 limits assumed): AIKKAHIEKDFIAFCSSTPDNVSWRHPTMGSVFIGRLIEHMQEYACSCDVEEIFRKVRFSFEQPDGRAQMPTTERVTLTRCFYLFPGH
- test details: Enzyme assay with UV-visible substrate (visible ICE assay, Succinyl-Tyr-Val-Ala-Asp-pNitroanilide)
- Assay type: biochemical
- details: Table 5
pKi: −log10 of the molar value.
experimental readout: pKi

A. O=C[C@H](CC(=O)O)NC(=O)[C@@H]1CCCN2C(=O)CC[C@H](NC(=O)/C=C/c3ccncc3)C(=O)N12 [Compound 472]
B. O=C[C@H](CC(=O)O)NC(=O)[C@@H]1CCCN2C(=O)CC[C@H](NC(=O)c3cc4ccccc4o3)C(=O)N12 [Compound 467]
C. O=C[C@H](CC(=O)O)NC(=O)[C@@H]1CCCN2C(=O)CC[C@H](NC(=O)c3ccc4nn[nH]c4c3)C(=O)N12 [Compound 432]
// query Task for the reader: place the compounds above in descending order according to recorded pKi. Order the labels as requested and give them as your answer.
// result C, B, A

I. O=C(O)C[C@H](NC(=O)CN1C(=O)[C@@H](NC(=O)CCc2ccccc2)CN(C(=O)CCc2ccccc2)c2ccccc21)C(=O)c1nc2cc(Cl)cc(Cl)c2o1 [Compound 609a]
II. O=C[C@H](CC(=O)O)NC(=O)[C@@H]1CCCN2C(=O)CC[C@H](NC(=O)c3ccc(CO)cc3)C(=O)N12 [Compound 479]
// query Larger number for pKi: I , or II ? Answer format: the label of the selected item.
// result II
(II: 7.82, I: 6.94)

P. N#C[C@H](CC(=O)O)NC(=O)[C@@H]1CCCN2C(=O)CC[C@H](NC(=O)c3ccccc3)C(=O)N12 [Compound 232e]
Q. CC(=O)N1C[C@H](NC(=O)C(=O)c2ccccc2)C(=O)N(CC(=O)N[C@H](C=O)CC(=O)O)c2ccccc21 [Compound 635]
R. O=C[C@H](CC(=O)O)NC(=O)[C@@H]1CCCN2C(=O)CC[C@H](NC(=O)c3ncc[nH]3)C(=O)N12 [Compound 445]
// query Ordering criterion: pKi; begin with the maximum. Returns: the labels listed in the requested order.
// result Q, R, P
(Q: 7.26, R: 6.87, P: 5.96)

1. O=C[C@H](CC(=O)O)NC(=O)[C@@H]1CCCN2C(=O)CC[C@H](NC(=O)Cc3ccccc3)C(=O)N12 [Compound 495]
2. O=C[C@H](CC(=O)O)NC(=O)[C@@H]1CCCN2C(=O)CC[C@H](NC(=O)c3ccc4ccccc4c3)C(=O)N12 [Compound 407]
// query Please let me know which one, 1 or 2 , has a lower measured pKi value. Use the label to indicate which entry you chose.
// result 1
